# protocolNotes: chemical genetic growth profiling, strain panel (AID 1159580);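 note: tested at 20 µM; growth read once vehicle control cultures reached saturation at 30 °C; lower values mean less growth of the strain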
# conditionLabel: S. cerevisiae deletion strains, growth OD, locus YOR061W, strain CKA2, hits give low values
Among all 5,500 compounds or so, about 2,000 (36%) were called active. About 18% were inconclusive and are not listed. The list shows a part of the results.
normalized growth under 1 gets t, anything at or over 1 gets f.

Answered examples (2):
INSERT INTO results (structurenotation, category) VALUES
  ('COc1ccc(-c2cc(=O)c3c(OC)cccc3o2)cc1', 'f'),
  ('CC(C)Oc1ccc2c(=O)cc(-c3ccccc3)oc2c1', 't');

Lab note: next compound to report on.
Please determine if `COc1ccc(-c2cc(=O)c3ccccc3o2)cc1` is below 1 in terms of normalized growth.
t
